Entries and their measured polymerase ribozyme fitness (log ratio) follow.
B1: TPR t1 (parent)
chain: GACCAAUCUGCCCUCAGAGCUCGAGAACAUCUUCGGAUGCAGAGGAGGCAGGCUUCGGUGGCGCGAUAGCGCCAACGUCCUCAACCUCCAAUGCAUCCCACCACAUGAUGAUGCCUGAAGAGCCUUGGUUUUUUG

Variants of: B1
Test: polymerase ribozyme fitness, log enrichment relative to wild type (log ratio); higher = more active; in vitro selection for triplet polymerase activity
readout: polymerase ribozyme fitness (log ratio)

A29G C101A | -3.99
G35A U78C | -3.74
A5U C22G A66U U112A U126G | -3.51
C12G G58U A90U A105U | -4.19
C12A G48U C53A C101U G113C G120A | -3.38
G47U C101U U125G U126C | -2.99
G60C U129C | -0.277
C53A C56G C62U C89A G120C U134G | -0.681
A29G A37C A74G A111C | -1.06
C13A C70G C123A | -2.2
U32C C64U | 0.123
G10U C56A A74G U132C | -1.83
C8U C13A A18C U54G C70U | -3.71
C8G U96C C104U | 0.578
C22G C76U G77C C124U U131G | -3.47
A6C A50C G127A G128U | -3.5
G45A G47U A66U C73A C82U | -3.27
C31U A43C | -6.22
U7C A16U C34A C49G | -4.01
G10A C53G G69U C88U G110U | -0.0648
A26U C72A U129A | -4.07
G39U G110C A121C | -4.8
